The measured values listed here are drawn from patent US7915281B2.

measuredEndpoint: melting point

> print(dat)
                                   molecule         result
1  CCCc1nc2c(N)nc3cccnc3c2n1Cc1cc(-c2ccc(F)cc2)no1  238 to 239 °C
2  CCOCc1nc2c(Cl)nc3ccccc3c2n1Cc1cc(-c2ccc(F)cc2)no1  189 to 190 °C
3  CCOCc1nc2c(N)nc3cccnc3c2n1Cc1cc(-c2ccc(F)cc2)no1  190 to 191 °C
4  Cc1nc(N)c2nc(CO)n(Cc3cc(-c4ccc(F)cc4)no3)c2c1C  164 to 165 °C
5  CCc1nc2c(N)nc(C)c(C)c2n1Cc1cc(-c2ccc(F)cc2)no1  255 to 256 °C
6  CCCc1nc2c(N)nc3ccccc3c2n1CCc1cc(-c2ccc(F)cc2)no1  208 to 209 °C

Provide the reported melting point of each entry below, same order.
1. CCCc1nc2c(N)nc(C)c(C)c2n1Cc1cc(-c2ccc(F)cc2)no1
2. CCOCc1nc2c(N)nc3ccccc3c2n1CC1CC(C)=NO1 (stereo not shown)
3. CCOCc1nc2c(N)nc3ccccc3c2n1CCCc1cc(C)no1
4. Cc1nc2c(N)nc3ccccc3c2n1Cc1cc(-c2ccc(F)cc2)no1
5. Nc1nc2cccnc2c2c1nc(CO)n2Cc1cc(-c2ccc(F)cc2)no1
6. Cc1nc2c(N)nc3cccnc3c2n1Cc1cc(-c2ccc(F)cc2)no1

OUT:
1. 227 to 229 °C
2. 204 to 205 °C
3. 163 to 164 °C
4. 294 to 296 °C
5. 247 to 248 °C
6. 239 to 240 °C

---

measuredEndpoint: melting point

Use the examples below as a reference point.
> print(dat)
                                     smiles  measuredendpoint         result
1  CCOCc1nc2c(N)nc3ccccc3c2n1Cc1cc(-c2cccnc2)no1     melting point  240 to 242 °C
2  CCCc1nc2c(N)nc3ccccc3c2n1Cc1cc(-c2cccnc2)on1     melting point  206 to 207 °C
3  CCCc1nc2c(N)nc3ccccc3c2n1Cc1cc(-c2ccc(F)cc2)no1     melting point  226 to 227 °C
4  Fc1ccc(-c2cc(Cn3cnc4c(Cl)nc5ccccc5c43)on2)cc1     melting point  219 to 220 °C
5  CCOCc1nc2c(N)nc(C)c(C)c2n1Cc1cc(-c2cccnc2)no1     melting point  189 to 191 °C
6  Nc1nc2ccccc2c2c1nc(CO)n2Cc1cc(-c2ccc(F)cc2)no1     melting point  262 to 263 °C
7  Cc1nc(N)c2ncn(Cc3cc(-c4ccc(F)cc4)no3)c2c1C     melting point  244 to 246 °C
8  CCOCc1nc2c(N)nc3ccccc3c2n1CCc1cc(-c2ccc(F)cc2)no1     melting point  180 to 181 °C

IN: Form field: reported melting point of "CCOCc1nc2c(N)nc3ccccc3c2n1CCN1C(C)=NOC12CCCC2"
OUT: 211 to 213 °C

---

measuredEndpoint: melting point

Use the examples below as a reference point.
> print(dat)
                                   molecule         result
1  CCOCc1nc2c(N)nc3ccccc3c2n1CCCc1cc(-c2cccnc2)no1  199 to 200 °C
2      CCCCc1cc(Cn2cnc3c(N)nc4ccccc4c32)no1  201 to 203 °C
3  CCOCc1nc2c(N)nc3ccccc3c2n1CCN1C(C)=NOC1(C)C  204 to 205 °C
4  CCOCc1nc2c(N)nc3ccccc3c2n1CC1CC(c2ccccc2)=NO1 (stereo not shown)  235 to 237 °C
5  CCOCc1nc2c(N)nc3ccccc3c2n1Cc1cc(-c2ccccc2)no1  215 to 216 °C

Provide the reported melting point of each entry below, same order.
1. Nc1nc2ccccc2c2c1nc(CF)n2Cc1cc(-c2ccc(F)cc2)no1
2. Nc1nc2ccccc2c2c1ncn2Cc1cc(-c2ccc(F)cc2)no1
3. CCc1nc2c(N)nc3ccccc3c2n1Cc1cc(-c2ccc(F)cc2)no1

OUT:
1. 192 to 193 °C
2. 259 to 260 °C
3. 232 to 233 °C

---

measuredEndpoint: melting point

> print(dat)
                                     smiles  measuredendpoint         result
1  CCOCc1nc2c(N)nc3ccccc3c2n1Cc1cc(-c2ccc(F)cc2)no1     melting point  203 to 204 °C
2     CCOCc1nc2c(N)nc3ccccc3c2n1Cc1cc(C)no1     melting point  178 to 180 °C
3  Nc1nc2c(c3c1ncn3Cc1cc(-c3ccc(F)cc3)no1)NCCC2     melting point  227 to 228 °C
4  CCOCc1nc2c(N)nc3ccccc3c2n1CCCc1cc(-c2ccccc2)no1     melting point  171 to 172 °C
5  CCOCc1nc2c(N)nc(C)c(C)c2n1Cc1cc(-c2ccc(F)cc2)no1     melting point  246 to 247 °C

Provide the reported melting point of each entry below, same order.
1. Cc1nc(N)c2nc(C)n(Cc3cc(-c4ccc(F)cc4)no3)c2c1C
2. CCOCc1nc2c(N)nc3ccccc3c2n1Cc1cc(-c2ccccc2)on1
3. Nc1nc2cccnc2c2c1ncn2Cc1cc(-c2ccc(F)cc2)no1

OUT:
["278 to 279 °C", "221 to 223 °C", "265 to 266 °C"]
